measured target: β1 -adrenergic receptors (Rattus norvegicus)
Construct: from tissue; host or cells: isolated rat auricles (atria)
protocol: Studies on isolated organs: antagonism of isoprenaline-induced tachycardia and increase in contractile force in isolated rat auricles (pA2)
Design: species or system rats
condition description: isoprenaline contractile force, metoprolol = 1.0
Simple rule here: Effect on inotropism, ratio of activity to that of metoprolol less than 0.8 is 1, otherwise -1.

Solved cases below.
>>> print(df.to_string())
                                   compound  classification
0  CC(C)NCC(O)COc1ccc(OCCOCC2CCC2)cc1 (centres unmarked)              -1
1  CC(C)NCC(O)COc1ccc(COCC2CCC2)cc1 (centres unmarked)               1
2  CC(C)NCC(O)COc1ccc(OCC2CC2)cc1 (centres unmarked)              -1
3  CC(C)NCC(O)COc1ccc(CCOCC2CCCCC2)cc1 (centres unmarked)               1
4  CC(CC#N)NCC(O)COc1ccc(CCOCC2CCC2)cc1 (centres unmarked)               1

**Query** Is the reported Effect on inotropism, ratio of activity to that of metoprolol for CC(C)NCC(O)COc1ccc(CCS(=O)(=O)CC2CCC2)cc1 (centres unmarked) strictly below 0.8?
**Result** -1

**Query** Is the reported Effect on inotropism, ratio of activity to that of metoprolol for CC(C)NCC(O)COc1ccc(CCSCC2CCC2)cc1 (centres unmarked) strictly below 0.8?
**Result** 1

**Query** Is the reported Effect on inotropism, ratio of activity to that of metoprolol for COc1ccc(CCNCC(O)COc2ccc(CCOCC3CCC3)cc2)cc1OC (centres unmarked) strictly below 0.8?
**Result** 1

**Query** Is the reported Effect on inotropism, ratio of activity to that of metoprolol for CC(C)(C)NCC(O)COc1ccc(OCCOCC2CC2)cc1 (centres unmarked) strictly below 0.8?
**Result** -1

**Query** Is the reported Effect on inotropism, ratio of activity to that of metoprolol for CC(CCc1ccc(F)cc1)NCC(O)COc1ccc(CCOCC2CCC2)cc1 (centres unmarked) strictly below 0.8?
**Result** 1

**Query** Is the reported Effect on inotropism, ratio of activity to that of metoprolol for CC(=O)NCCNCC(O)COc1ccc(CCOCC2CCC2)cc1 (centres unmarked) strictly below 0.8?
**Result** 1

###

measured target: β1 -adrenergic receptors (Rattus norvegicus, UniProt P18090)
Construct: from tissue; host or cells: isolated rat auricles (atria)
Sequence (P18090 whole entry): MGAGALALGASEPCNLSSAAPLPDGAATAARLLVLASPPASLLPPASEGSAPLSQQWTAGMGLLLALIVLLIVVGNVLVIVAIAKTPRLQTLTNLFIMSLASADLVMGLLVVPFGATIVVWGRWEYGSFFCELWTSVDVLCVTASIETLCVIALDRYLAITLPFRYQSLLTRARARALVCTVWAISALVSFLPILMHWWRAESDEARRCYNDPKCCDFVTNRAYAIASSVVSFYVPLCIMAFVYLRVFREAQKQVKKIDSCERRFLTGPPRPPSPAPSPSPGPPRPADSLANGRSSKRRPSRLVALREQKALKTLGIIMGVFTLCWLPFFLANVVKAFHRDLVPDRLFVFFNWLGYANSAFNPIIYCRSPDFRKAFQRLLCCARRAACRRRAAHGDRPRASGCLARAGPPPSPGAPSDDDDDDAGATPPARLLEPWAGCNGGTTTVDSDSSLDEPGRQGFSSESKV
protocol: Studies on isolated organs: antagonism of isoprenaline-induced tachycardia and increase in contractile force in isolated rat auricles (pA2)
Set-up: species or system rats
condition description: isoprenaline tachycardia, metoprolol = 1.0
Output Y for Effect on chronotropism, ratio of activity to that of metoprolol not less than 1; output N otherwise.

In [3]: df
Out[3]:
                                   compound  classification
0  CC(C)NCC(O)COc1ccc(OCCOCC2CCCC2)cc1 (stereo not shown)               Y
1  CC(C)NCC(O)COc1ccc(OCC2CC2)cc1 (stereo not shown)               Y

**Query** Exam item: decide whether the reported Effect on chronotropism, ratio of activity to that of metoprolol for CC(C)NCC(O)COc1ccc(OCCOCC2CCC2)cc1 (stereo not shown) is at least 1.
**Result** Y
